# Tested System: T1, CD123-Fc recombinant protein (human, UniProt P26951 19-305)
# T1 construct: construct not described; not shown: Fc part
# T1 sequence (looked up): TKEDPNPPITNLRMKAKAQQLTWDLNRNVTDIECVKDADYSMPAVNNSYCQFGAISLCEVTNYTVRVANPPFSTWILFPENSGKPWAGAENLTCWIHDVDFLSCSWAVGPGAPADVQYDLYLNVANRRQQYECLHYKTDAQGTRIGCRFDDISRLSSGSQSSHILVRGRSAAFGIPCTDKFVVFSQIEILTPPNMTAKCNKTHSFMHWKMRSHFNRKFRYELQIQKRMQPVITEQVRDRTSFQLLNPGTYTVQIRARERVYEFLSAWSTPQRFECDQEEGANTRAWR
# Assay Details: flow cytometry of T cells electroporated with CAR mRNA, stained with CD123-Fc + PE-anti-hIgG-Fc; Mock 0.36
The binders listed here are annotated with their percent of cells in the CD123-Fc positive gate.
Output spec: scalar in %, unitless text.

# count of solved cases: 2
Binder	Meas Value
C22 (scFv, also called anti-CD123 scFv-C22) scFv: SYELTQPPSVSVAPGKTARITCGANNIETKSVHWYRQRPGQAPILVIYYDSDRPSGIPERFSGSTSGDTATLTISRVEAEDEADYYCQVWDSTSDHVVFGEGTKLTVLGGGGSGGGGSGGGGSEVQLVESGAEVKKPGESLKISCKGSGYSFTSYWIGWVRQMPGKGLEWMGIINPSGGSTSYAQKFQGRVTMTRDTSTSTVYMELSSLRSEDTAVYYCARVVTPYYPLTNWGQGTLVTVSS	0.53
anti-CD123 scFv-C34 (scFv, On mRNA-electroporated T cells as CAR) scFv: QSALTQPPSASGSPGQSVTISCTGTRSDVGAYNYVSWYQHHPGKAPKLMLYDVSKRPSGVSDRFSGSKSGNTASLTVSGLQSEDEANYYCSSYAGSGKYVFGSGTELTVLGGGGSGGGGSGGGGSEVHLVESGGGLVKPGGSLRLSCAASGFTFSDTWMSWVRQAPGKGLEWVGRIKSKTDGGTTNYAAPVKGRFTISRDDSKTTLFLQMNSLKTEDTAVYYCTGGDYPLFAYWGQGALVTVSS	90.3

Proceeding to the next binder to report its percent of cells in the CD123-Fc positive gate.
Exercise: Give recorded percent of cells in the CD123-Fc positive gate. anti-CD123 scFv-C21 (scFv, On mRNA-electroporated T cells as CAR) scFv: QSVLTQPPSASGTPGQRVTISCSGSSSNVGGNPVYWYRQVPTAAPKLLVYGHNQRPPRDPDRFSGSKSGTSASLAISGLRSEDEADYYCAAWDDSLSGWVFGGGTELTVLGGGGSGGGGSGGGGSEVQLVESGGGLVQPGRSLRLSCAASGFTFDDYAMHWVRQAPGKGLEWVSGISWNSGSIGYADSVKGRFTISRDNAKNSLYLQMNSLRAEDTALYYCAKGRYVDIVATINDAFDIWGQGTMVTVSS
Key: 78.6
